Values compiled from ChEMBL document CHEMBL6092174.

Entries and their selectivity ratio values follow.
# experiment_notes: Selectivity index, ratio of CC50 for cytotoxicty against MDCK cells to EC50 for antiviral activity against Influenza A virus H3N2 (A/Aichi/2/68) infected in dog MDCK cells
# Type: toxicity, cell-based
# measurement_parameters: read-out: Selectivity Index
Answer field: number only, no words.

>  <query_smiles>
O=C1c2c(O)c(=O)ccn2N([C@H]2c3ccccc3OCc3c(Cl)cccc32)[C@@H]2COCCN12

>  <endpoint_value>
23200

$$$$

Now turn to the next compound.
[in] State its selectivity ratio for this compound: `O=C1c2c(O)c(=O)ccn2N([C@@H]2c3ccccc3OCc3c2ccc(F)c3F)[C@@H]2COCCN12`
[out] 11400

----------
Entries and their MRT inf values follow.
# experiment_notes: MRT (0 to infinity) in CD-1 mouse at 15 mg/kg, po measured upto 24 hrs by LC-MS/MS analysis
# Format: ADME, organism-based
# measurement_parameters: in vivo
Please reply with the bare figure in h and do not write the unit itself.

>  <compound>
O=C1c2c(O)c(=O)ccn2N([C@@H]2c3ccccc3SCc3c2ccc(F)c3F)[C@@H]2COCCN12 [BALOXAVIR]

>  <MRT inf [h]>
4.63

$$$$

[in] State its MRT inf for this compound: `O=C1c2c(O)c(=O)ccn2N([C@H]2c3ccc(F)cc3COc3ccccc32)[C@@H]2COCCN12`
[out] 4

[in] State its MRT inf for this compound: `O=C1c2c(O)c(=O)ccn2N([C@@H]2c3ccccc3OCc3c(Cl)cccc32)[C@@H]2COCCN12`
[out] 6.25

----------
# experiment_notes: Cytotoxicity against dog MDCK cells assessed as reduction in cell viability incubated for 2 days by CCK-8 assay
# Assay type: toxicity, cell-based, Canis lupus familiaris
# measurement_parameters: time 2 day
endpoint: CC50 at 48 h

>  <query_smiles>
O=C1c2c(O)c(=O)ccn2N([C@H]2c3ccccc3COc3cc(C(F)(F)F)ccc32)[C@@H]2COCCN12

>  <endpoint_value>
> 50 µM

$$$$
>  <query_smiles>
O=C1c2c(O)c(=O)ccn2N([C@@H]2c3ccccc3COc3cc(C(F)(F)F)ccc32)[C@@H]2COCCN12

>  <endpoint_value>
> 50 µM

$$$$

[in] State its CC50 at 48 h for this molecule: `O=C1c2c(O)c(=O)ccn2N([C@H]2c3ccccc3COc3ccccc32)[C@@H]2COCCN12`
[out] > 50 µM
